# assay overview: Plasma concentration in healthy human at […], po after 10 hrs
# Assay type: ADME, organism-based
# Set-up: route oral
measure: concentration at 10 h (ng/mL)

compound: CC[C@H]1OC(=O)[C@H](C)C(=O)[C@H](C)[C@@H](O[C@@H]2O[C@H](C)C[C@H](N(C)C)[C@H]2O)[C@@]2(C)C[C@@H](C)/C(=N\C(C)=O)[C@H](C)[C@@H](OC/C(=N\OCc3ccc(-n4cccn4)nc3)CO2)[C@]1(C)O [MODITHROMYCIN]
measured number: 429

====

# assay overview: Plasma concentration in healthy human at […], po after 6 hrs
# Type: ADME, organism-based
# Parameters: route oral
measure: concentration at 6 h

compound structure: CC[C@H]1OC(=O)[C@H](C)C(=O)[C@H](C)[C@@H](O[C@@H]2O[C@H](C)C[C@H](N(C)C)[C@H]2O)[C@@]2(C)C[C@@H](C)/C(=N\C(C)=O)[C@H](C)[C@@H](OC/C(=N\OCc3ccc(-n4cccn4)nc3)CO2)[C@]1(C)O
measure: concentration at 6 h
result: 540 ng/mL

====

# assay overview: Terminal-phase half-life in epithelial lining fluid of healthy human at 400 mg, po administered as single dose
# run conditions: read-out: beta t1/2 (converted)
measure: half-life (h)

compound structure: CC[C@H]1OC(=O)[C@H](C)C(=O)[C@H](C)[C@@H](O[C@@H]2O[C@H](C)C[C@H](N(C)C)[C@H]2O)[C@@]2(C)C[C@@H](C)/C(=N\C(C)=O)[C@H](C)[C@@H](OC/C(=N\OCc3ccc(-n4cccn4)nc3)CO2)[C@]1(C)O
reading unit: h
measured number: 14.8
